These data points were gathered from patent US20120213794A1.

The reader will find reported Kd values listed item by item below.
- experimental.target: T1, human PCSK9 (human, UniProt Q8NBP7 31-692)
- T1 construct: also called hPCSK9; proprotein convertase subtilisin-kexin type 9
- T1 sequence (Q8NBP7 31-692 limits assumed): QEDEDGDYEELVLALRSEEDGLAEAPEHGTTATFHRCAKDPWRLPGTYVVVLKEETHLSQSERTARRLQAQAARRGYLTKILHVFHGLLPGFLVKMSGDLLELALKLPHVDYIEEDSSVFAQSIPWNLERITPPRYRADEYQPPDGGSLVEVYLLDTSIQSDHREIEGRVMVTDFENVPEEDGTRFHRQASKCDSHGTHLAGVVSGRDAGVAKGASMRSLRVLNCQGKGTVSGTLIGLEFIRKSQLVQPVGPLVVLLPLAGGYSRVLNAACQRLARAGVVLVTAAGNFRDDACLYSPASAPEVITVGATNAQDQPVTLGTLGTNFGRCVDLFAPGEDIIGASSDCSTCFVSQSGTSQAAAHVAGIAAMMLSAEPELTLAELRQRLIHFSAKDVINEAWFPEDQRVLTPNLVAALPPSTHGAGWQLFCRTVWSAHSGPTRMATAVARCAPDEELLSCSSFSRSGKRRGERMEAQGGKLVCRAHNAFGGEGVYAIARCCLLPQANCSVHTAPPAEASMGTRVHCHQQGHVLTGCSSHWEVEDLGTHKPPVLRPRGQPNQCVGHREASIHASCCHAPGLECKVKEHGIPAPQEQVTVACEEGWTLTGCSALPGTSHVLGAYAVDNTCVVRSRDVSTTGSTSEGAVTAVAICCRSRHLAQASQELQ
- experimental.details: SPR (Biacore), Fab captured by anti-Fab IgG, 1:1 fit
Reply with just the number (in nM).

For orientation, consider the following solved cases.
binder	quantity.unit	Kd
AX114 Fab (Fab, V domains shown, Tested as purified Fab from E. coli TG1) VH: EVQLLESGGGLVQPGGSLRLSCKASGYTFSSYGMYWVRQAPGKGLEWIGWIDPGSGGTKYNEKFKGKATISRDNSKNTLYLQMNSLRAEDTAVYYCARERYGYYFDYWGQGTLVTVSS VL: EIVLTQSPATLSLSPGERATITCRASQYVGTYLNWYQQKPGQAPRLLIYDASNRATGIPARFSGSGSGTDFTLTISSLEPEDFAVYYCQVWDSSPPVAFGGGTKVEIK	nM	48.5
AX139 Fab (Fab, V domains shown, Tested as purified Fab) VH: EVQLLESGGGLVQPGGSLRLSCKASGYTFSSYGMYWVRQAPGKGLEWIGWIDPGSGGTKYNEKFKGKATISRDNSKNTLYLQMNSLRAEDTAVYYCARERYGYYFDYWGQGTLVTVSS VL: EIVLTQSPATLSLSPGERATITCRASQYVGSYLNWYQQKPGQAPRLLIYDAANRATGIPARFSGSGSGTDFTLTISSLEPEDFAVYYCQVWDSSPPVVFGGGTKVEIK	nM	13.2

Moving on to another binder below.
**Q:** Which Kd reading was recorded for the binder AX212 Fab (Fab, V domains shown, Tested as purified Fab) VH: QVQLLESGGGLVQPGGSLRLSCKASGYTFSSYSFSWVRQAPGKGLEWIGYIDPGSGGTKYNQKFQGKATISRDNSKNTLYLQMNSLRAEDTAVYYCARQRVGYSLDYWGQGTLVTVSS VL: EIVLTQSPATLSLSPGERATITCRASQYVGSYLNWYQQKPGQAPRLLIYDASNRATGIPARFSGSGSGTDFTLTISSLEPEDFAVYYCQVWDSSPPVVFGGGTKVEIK ?
**A:** 1.47
